Recorded TGI values for a group of molecules are listed next.
Tested on: PC-3 prostate
Test: NCI tumour cell line growth inhibition, 48 h

stdin: Item: CCOC(=O)c1c2c(n3ccccc13)C(=O)c1ccccc1C2=O Test system: PC-3 prostate Read-out: TGI Value: ?
stdout: > 100 µM

stdin: Item: CC[C@H]1C=CCC[C@@]2(C[C@@H]3CC[C@@H]4[C@H](C(=O)OCCCCCCCCCCCCCCCC(=O)O)[C@]5(CCC[C@@H](C)O5)NC(=[N+]34)N2)O1 Test system: PC-3 prostate Read-out: TGI Value: ?
stdout: 1.9 µM

stdin: Item: CNC(=O)OC(C)CN1c2ccccc2Sc2ccc(Cl)cc21 (stereo unspecified) Test system: PC-3 prostate Read-out: TGI Value: ?
stdout: > 10 µM
